test system: 15-PGDH luciferase fusion construct in V9m reporter cell line; experiment: 15-PGDH-luciferase fusion gene reporter induction, V9m cells; format: cell-based; conditions: read-out: V9M-SC3 Reporter activity ([…]) (%), V9m reporter cells, […] compound; % induction of luciferase activity over basal level; read-out: V9M-SC3 Reporter activity (2.5 μM) (%)
Note that class boundaries on activation at […] are band A = under -10%, band B = from -10% up to 10%, band C = 10% and over

- smiles-structure: "COc1ccc(OC)c(N(CC(=O)Nc2cccnn2)S(=O)(=O)c2ccccc2)c1"
  target-or-system: "15-PGDH luciferase fusion construct in V9m reporter cell line"
  qualitative-label: "band C"
- smiles-structure: "COc1cccc(NC(=O)CN(c2cc(OC)ccc2OC)S(=O)(=O)c2ccccc2)c1"
  target-or-system: "15-PGDH luciferase fusion construct in V9m reporter cell line"
  qualitative-label: "band A"
- smiles-structure: "CNC(=O)CN(c1cc(OC)ccc1OC)S(=O)(=O)c1ccccc1"
  target-or-system: "15-PGDH luciferase fusion construct in V9m reporter cell line"
  qualitative-label: "band C"
- smiles-structure: "COc1ccc(OC)c(N(CC(=O)Nc2cccnc2)S(=O)(=O)c2ccccc2C)c1"
  target-or-system: "15-PGDH luciferase fusion construct in V9m reporter cell line"
  qualitative-label: "band B"
- smiles-structure: "COc1ccc(OC)c(N(CC(=O)Nc2ccc(C)nc2)S(=O)(=O)c2ccccc2)c1"
  target-or-system: "15-PGDH luciferase fusion construct in V9m reporter cell line"
  qualitative-label: "band B"
- smiles-structure: "COc1ccc(OC)c(N(CC(=O)OC2CCCCC2)S(=O)(=O)c2ccccc2)c1"
  target-or-system: "15-PGDH luciferase fusion construct in V9m reporter cell line"
  qualitative-label: "band A"
- smiles-structure: "CCOC(=O)CN(c1cc(OC)ccc1OC)S(=O)(=O)c1ccccc1"
  target-or-system: "15-PGDH luciferase fusion construct in V9m reporter cell line"
  qualitative-label: "band B"
- smiles-structure: "COc1ccc(OC)c(N(CC(=O)Nc2cccnc2)S(=O)(=O)c2cccc(C)c2)c1"
  target-or-system: "15-PGDH luciferase fusion construct in V9m reporter cell line"
  qualitative-label: "band C"
- smiles-structure: "COc1ccc(OC)c(N(CC(=O)Nc2ccccc2C)S(=O)(=O)c2ccccc2)c1"
  target-or-system: "15-PGDH luciferase fusion construct in V9m reporter cell line"
  qualitative-label: "band A"
- smiles-structure: "COc1ccc(OC)c(N(CC(=O)Nc2cccnc2)S(=O)(=O)c2ccccc2C#N)c1"
  target-or-system: "15-PGDH luciferase fusion construct in V9m reporter cell line"
  qualitative-label: "band C"
- smiles-structure: "COc1ccc(OC)c(N(CC(=O)Nc2cc(C)no2)S(=O)(=O)c2ccccc2)c1"
  target-or-system: "15-PGDH luciferase fusion construct in V9m reporter cell line"
  qualitative-label: "band B"
- smiles-structure: "COc1ccc(OC)c(N(CC(=O)Nc2ccnc(C)c2)S(=O)(=O)c2ccccc2)c1"
  target-or-system: "15-PGDH luciferase fusion construct in V9m reporter cell line"
  qualitative-label: "band B"
- smiles-structure: "COc1ccc(OC)c(N(CC(=O)Nc2cccnc2C)S(=O)(=O)c2ccccc2)c1"
  target-or-system: "15-PGDH luciferase fusion construct in V9m reporter cell line"
  qualitative-label: "band A"
- smiles-structure: "CCCOC(=O)CN(c1cc(OC)ccc1OC)S(=O)(=O)c1ccccc1"
  target-or-system: "15-PGDH luciferase fusion construct in V9m reporter cell line"
  qualitative-label: "band A"
- smiles-structure: "COc1ccc(OC)c(N(CC(=O)Nc2ccnnc2)S(=O)(=O)c2ccccc2)c1"
  target-or-system: "15-PGDH luciferase fusion construct in V9m reporter cell line"
  qualitative-label: "band C"
- smiles-structure: "COc1ccc(OC)c(N(CC(=O)OC(C)(C)C)S(=O)(=O)c2ccccc2)c1"
  target-or-system: "15-PGDH luciferase fusion construct in V9m reporter cell line"
  qualitative-label: "band A"
- smiles-structure: "COc1ccc(OC)c(N(CC(N)=O)S(=O)(=O)c2ccccc2)c1"
  target-or-system: "15-PGDH luciferase fusion construct in V9m reporter cell line"
  qualitative-label: "band C"
- smiles-structure: "COc1ccc(S(=O)(=O)N(CC(=O)N2CCOCC2)c2cc(OC)ccc2OC)cc1"
  target-or-system: "15-PGDH luciferase fusion construct in V9m reporter cell line"
  qualitative-label: "band C"
